- TEST_SYSTEM: hPPARalpha (Homo sapiens, UniProt Q07869)
- Construct: Gal4-hPPARα(LBD); Gal4 (fusion partner); expressed in transfected cells; host or cells: COS-7 (monkey kidney)
- Sequence (Q07869 239-466 limits assumed): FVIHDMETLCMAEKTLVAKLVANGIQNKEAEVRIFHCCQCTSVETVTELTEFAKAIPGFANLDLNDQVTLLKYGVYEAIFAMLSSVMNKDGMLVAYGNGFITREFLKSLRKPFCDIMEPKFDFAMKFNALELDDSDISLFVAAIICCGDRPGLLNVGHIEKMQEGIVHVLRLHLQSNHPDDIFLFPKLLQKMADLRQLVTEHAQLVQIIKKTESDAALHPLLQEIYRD
- METHOD_NOTES: Gal4-hPPARalpha transactivation assay in COS-7 cells (luciferase)
- Format: cell-based
- CONDITION_CONTEXT: COS-7, maximal relative activation vs reference; read-out: Gal4-hPPARα(LBD) TOP (% ref)
QUANTITY: Emax (%)
Provide the reading as a plain figure in %.

### Prompt Please look up its Emax: CCCCOC(c1ccc(OC(F)(F)F)cc1)C1CC1c1cc(C)c(OC(C)(C)C(=O)O)c(C)c1 (single isomer, unassigned) [Cpd 5-1]
### Response 44

### Prompt Please give the measured Emax for this compound: COC(c1ccc(SC(F)(F)F)cc1)C1CC1c1cc(C)c(OC(C)(C)C(=O)O)c(C)c1 (racemic) [Cpd 9-1]
### Response 50

### Prompt So what does the record say about Emax for COC(c1ccc(SC)cc1)C1CC1c1cc(C)c(OC(C)(C)C(=O)O)c(C)c1 (single isomer, unassigned) [Cpd 3-1] ?
### Response 57

### Prompt Look at this compound and give its reported Emax. COC(c1ccc(OC(F)(F)F)cc1)C1CC1c1cc(F)c(OC(C)(C)C(=O)O)c(F)c1 (racemic) [Cpd 20-1]
### Response 50

* * *

- TEST_SYSTEM: hPPARalpha (Homo sapiens, UniProt Q07869)
- Construct: Gal4-hPPARα(LBD); Gal4 (fusion partner); expressed in transfected cells; host or cells: COS-7 (monkey kidney)
- METHOD_NOTES: Gal4-hPPARalpha transactivation assay in COS-7 cells (luciferase)
- Type: cell-based
- CONDITION_CONTEXT: Gal4-hPPARα(LBD) transactivation; listed as cpd 14-2-1
QUANTITY: pEC50
// pEC50 here means minus log10 of the molar concentration (mol/L)

### Prompt Suppose we examine the molecule COC(c1ccc(OC(F)(F)F)cc1)C1CC1c1cc(C)c(OC(C)(C)C(=O)O)c(C)c1 (stereo not shown) [Cpd 14-2-1] ; what pEC50 value has been reported?
### Response 7.30

* * *

So I've got a bunch of molecules here, and I need their EC50 values.
- TEST_SYSTEM: hPPARalpha (Homo sapiens, UniProt Q07869)
- Construct: Gal4-hPPARα(LBD); Gal4 (fusion partner); expressed in transfected cells; host or cells: COS-7 (monkey kidney)
- METHOD_NOTES: Gal4-hPPARalpha transactivation assay in COS-7 cells (luciferase)
- Format: cell-based
- CONDITION_CONTEXT: Gal4-hPPARα(LBD) transactivation
Provide only the numeric value, understood in nM.

### Prompt What is its EC50 for hPPARalpha (Homo sapiens, UniProt Q07869)? Entry: COC(c1ccc(C(F)(F)F)cc1C(F)(F)F)C1CC1c1cc(C)c(OC(C)(C)C(=O)O)c(C)c1 (single isomer, unassigned) [Cpd 16-1]
### Response 108

### Prompt GET /values?readout=EC50&system=hPPARalpha (Homo sapiens, UniProt Q07869)&item= COC(c1ccc(OC(F)(F)F)cc1)C1CC1c1ccc(OC(C)(C)C(=O)O)c(C(C)C)c1 (single isomer, unassigned) [Cpd 15-2]
### Response 145

### Prompt Can you look up EC50 on hPPARalpha (Homo sapiens, UniProt Q07869) for COC(c1ccc(SC(F)(F)F)cc1)C1CC1c1cc(C)c(OC(C)(C)C(=O)O)c(C)c1 (racemic) ?
### Response 10

### Prompt Requested read-out EC50, target or system hPPARalpha (Homo sapiens, UniProt Q07869), entry COC(c1ccc(OC(F)(F)F)cc1)C1CC1c1ccc(OC(C)(C)C(=O)O)c(C(C)C)c1 (single isomer, unassigned) [Cpd 15-1]
### Response 449

* * *

Task for the reader: assign each of the following molecules its reported Emax.
- TEST_SYSTEM: hPPARalpha (Homo sapiens)
- Construct: Gal4-hPPARα(LBD); Gal4 (fusion partner); expressed in transfected cells; host or cells: COS-7 (monkey kidney)
- METHOD_NOTES: Gal4-hPPARalpha transactivation assay in COS-7 cells (luciferase)
- Format: cell-based
- CONDITION_CONTEXT: COS-7, maximal relative activation vs reference; read-out: Gal4-hPPARα(LBD) TOP (% ref)
The response must be a number in % with no trailing unit.

### Prompt Give Emax (hPPARalpha (Homo sapiens)) of the following molecule: COC(c1ccccc1OC(F)(F)F)C1CC1c1cc(C)c(OC(C)(C)C(=O)O)c(C)c1 (single isomer, unassigned)
### Response 26

### Prompt Entry COC(c1ccc(C)cc1)C1CC1c1cc(C)c(OC(C)(C)C(=O)O)c(C)c1 (racemic) , system hPPARalpha (Homo sapiens): what Emax was measured?
### Response 35

### Prompt Emax of Cc1cc(C2CC2C(OCc2ccccc2)c2ccc(OC(F)(F)F)cc2)cc(C)c1OC(C)(C)C(=O)O (single isomer, unassigned) on hPPARalpha (Homo sapiens)?
### Response 46

### Prompt Requested read-out Emax, target or system hPPARalpha (Homo sapiens), entry COC(c1ccc(Br)cc1)C1CC1c1cc(C)c(OC(C)(C)C(=O)O)c(C)c1 (racemic)
### Response 44

### Prompt Given the entry Cc1cc(C2CC2C(OCCC2CCCCC2)c2ccc(OC(F)(F)F)cc2)cc(C)c1OC(C)(C)C(=O)O (racemic) , what Emax was observed with hPPARalpha (Homo sapiens)?
### Response 36

Where do the numbers come from? From patent US9115073B2.
